- testedTarget: HDAC6 human recombinant (Homo sapiens, UniProt Q9UBN7)
- Construct: purchased Calbiochem 382180
- Sequence (Q9UBN7 whole entry): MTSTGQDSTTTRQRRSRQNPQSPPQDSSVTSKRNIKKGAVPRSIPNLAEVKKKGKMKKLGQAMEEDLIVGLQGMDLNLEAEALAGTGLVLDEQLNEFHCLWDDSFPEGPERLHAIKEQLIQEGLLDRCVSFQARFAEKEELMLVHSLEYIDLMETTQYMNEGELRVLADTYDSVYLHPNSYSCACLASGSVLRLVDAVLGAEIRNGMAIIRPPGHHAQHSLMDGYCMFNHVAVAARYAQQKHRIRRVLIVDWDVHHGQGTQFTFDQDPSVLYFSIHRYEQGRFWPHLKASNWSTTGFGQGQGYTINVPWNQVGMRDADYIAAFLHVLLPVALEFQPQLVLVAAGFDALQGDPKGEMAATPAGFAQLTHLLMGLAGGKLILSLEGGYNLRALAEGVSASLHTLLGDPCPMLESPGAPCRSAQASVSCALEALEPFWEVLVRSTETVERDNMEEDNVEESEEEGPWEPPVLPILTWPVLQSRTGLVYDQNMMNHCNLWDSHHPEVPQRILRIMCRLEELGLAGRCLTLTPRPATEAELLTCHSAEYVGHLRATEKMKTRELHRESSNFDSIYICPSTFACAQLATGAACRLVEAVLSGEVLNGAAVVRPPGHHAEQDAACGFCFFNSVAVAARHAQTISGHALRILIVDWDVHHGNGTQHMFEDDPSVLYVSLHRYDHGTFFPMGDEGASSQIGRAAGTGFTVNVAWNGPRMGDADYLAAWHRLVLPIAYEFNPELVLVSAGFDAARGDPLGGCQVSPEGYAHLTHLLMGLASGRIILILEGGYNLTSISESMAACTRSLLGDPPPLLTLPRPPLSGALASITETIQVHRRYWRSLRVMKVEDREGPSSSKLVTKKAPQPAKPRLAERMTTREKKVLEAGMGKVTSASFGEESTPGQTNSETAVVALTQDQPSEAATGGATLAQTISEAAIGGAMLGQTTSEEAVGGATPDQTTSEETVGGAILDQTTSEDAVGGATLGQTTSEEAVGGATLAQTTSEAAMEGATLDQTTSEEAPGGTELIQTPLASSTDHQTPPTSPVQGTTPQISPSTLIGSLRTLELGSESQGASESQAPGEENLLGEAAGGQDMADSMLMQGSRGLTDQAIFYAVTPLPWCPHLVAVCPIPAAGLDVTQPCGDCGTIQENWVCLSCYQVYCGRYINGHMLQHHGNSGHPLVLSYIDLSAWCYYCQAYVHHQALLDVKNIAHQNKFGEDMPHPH
- testDescription: HDAC enzyme activity inhibition (in vitro), HDAC6 assay
- Type: biochemical
- appliedConditions: samples at 0.1, 1, 10, 100 and 1000 nM; 37° C. 60 minutes; fluorescence Ex 390, Em 460; read-out: HDAC6 IC50
measurementLabel: pIC50
Expect pIC50 as a plain number equal to -log10 of the molar concentration.

compound: CC(=O)N1CCC(n2c(=O)n(Cc3ccc(-c4nnc(C(F)F)o4)cc3)c3ccc(Cl)cc32)CC1 [Compound 183]
pIC50: 7.14
//
compound: O=c1oc2cc(-c3cccnc3)c(F)cc2n1Cc1ccc(-c2nnc(C(F)F)o2)cn1 [Compound 277]
pIC50: 7.68
//
compound: O=c1n(Cc2ccc(-c3nnc(C(F)F)o3)cn2)c2ccc(-c3ccncc3)cc2n1C1CCN(C2COC2)CC1 [Compound 282]
pIC50: 7.80
//
compound: CS(=O)(=O)N1CCC(n2c(=O)n(Cc3ccc(-c4nnc(C(F)F)o4)cn3)c3c(F)cccc32)CC1 [Compound 191]
pIC50: 7.43

The record that follows has no pIC50 shown yet.
Asked: Form field: reported pIC50 of CN1CCC(n2c(=O)n(Cc3ccc(-c4nnc(C(F)F)o4)cc3F)c3cc(Br)ccc32)CC1 [Compound 119]
Given back: 7.10
